- System: human GLP-1 receptor (human, UniProt P43220 24-463)
- Experimental Protocol: cell-based or functional assay
Bridge positions count the residues as written; N and C are the ends. Square brackets hold non-standard residues; d marks the D form. Ends that are not written are not given here. * marks the point of attachment. Acetyl(2-(4-imidazolyl)) = O=C(Cc1c[nH]cn1)*; Aib = CC(C)(N)C(=O)O
Threshold 40%: In vitro activity compared to native-type peptide (%), vs GLP-1 strictly smaller gives yes, otherwise no.

| Binder | Class Label |
| --- | --- |
| {Acetyl(2-(4-imidazolyl))}-[Aib]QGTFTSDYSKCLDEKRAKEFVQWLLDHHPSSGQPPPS (bridge 15-19) [triple agonist of SEQ ID NO: 74] | yes |
| H[Aib]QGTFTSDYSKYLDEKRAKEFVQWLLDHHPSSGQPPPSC (bridge 16-20) [triple agonist of SEQ ID NO: 50] | no |
| H[Aib]QGTFTSDYSKYLDERACQDFVQWLLDQGGPSSGAPPPS [triple agonist of SEQ ID NO: 27] | no |
| H[Aib]QGTFTSDVSSYLLGQQQKEFIAWLVKGGGPSSGAPPPSC [triple agonist of SEQ ID NO: 5] | no |
| H[Aib]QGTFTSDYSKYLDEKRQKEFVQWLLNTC (bridge 16-20) [triple agonist of SEQ ID NO: 51] | yes |
